tested on: DNA of tumor sarcoma 180 (S-180); assay: Influence on methylation of DNA of tumor sarcoma 180 in vitro (5-MC content); type: cell-based; conditions: 3 × 10^−6 M compound, tumor homogenate, 24 h at 37 °C; S-180 control 0.64 ± 0.02; seven determinations
Provide the recorded Content of Bases in DNA, 5-MC ± ζ for the entries that follow.
One number for each entry, in mol %.

• CCOC(=O)N1CCN(c2ncnc3c2sc2nc(C(C)C)c4c(c23)CC(C)(C)OC4)CC1 [Compound 7l] = 0.45

Okay, here is my list. What is Content of Bases in DNA, 5-MC ± ζ for each of these?
1. CC(C)c1nc2oc3c(NCc4cccnc4)ncnc3c2c2c1COC(C)(C)C2 [Compound 7h]
2. CC(C)CNc1ncnc2c1sc1nc(-c3ccco3)c3c(c12)CCCC3 [Compound 5d]
3. COc1ccc(CCNc2ncnc3c2oc2nc(C(C)C)c4c(c23)CC(C)(C)OC4)cc1OC [Compound 7e]
4. c1coc(-c2nc3sc4c(NCC5CCCO5)ncnc4c3c3c2CCCC3)c1 (centres unmarked) [Compound 5f]
5. c1coc(-c2nc3sc4c(N5CCCCC5)ncnc4c3c3c2CCCC3)c1 [Compound 5a]
6. CC1CCN(c2ncnc3c2sc2nc(-c4ccco4)c4c(c23)CCCC4)CC1 [Compound 5b]
7. CC(C)c1nc2oc3c(NCc4ccco4)ncnc3c2c2c1COC(C)(C)C2 [Compound 7g]

Result ::
0.42
0.42
0.28
0.07
0.38
0.25
0.38

Values compiled from paper PMC6864781.
